# target: T1, human SLITRK6 extracellular domain linked to his tag (human, UniProt Q9H5Y7 27-608)
# T1 construct: extracellular domain; also called huSLITRK6; Hu SLITRK6; not shown: his tag
# experimentDescription: BLI binning on huSLITRK6-his; Ab1 = row antibody first, then Ab2 (competitor) = phA108
In this section we review reported epitope binning signal values for a set of binders.
Just the number, please, no unit attached.

// lookup epitope binning signal for hu1H2-13 (antibody, V domains shown) VH: EVQLVESGGGLVQPGGSLRLSCAASGFTFSDYGLHWVRQAPGKGLEWVAYISSGSSTVYFADTLKGRFTISRDNAKNSLYLQMNSLRAEDTAVYYCTRGTWYFDVWGRGTLVTVSS VL: DIQMTQSPSSLSASVGDRVTITCRTSENIHSYLAWYQQKPGKSPQLLVYNAKTLADGVPSRFSGSGSGTDYTLTISSLQPEDFGTFYCQHFWTTSRTFGGGTKVEIK
0.299

The record that follows has no epitope binning signal shown yet.
// lookup epitope binning signal for Sirtratumab (antibody, V domains shown, Prior-art benchmark antibody; also called Sirtratuzumab) VH: QVQLVESGGGVVQPGRSLRLSCAASGFTFSSYGMHWVRQAPGKGLEWVAVIWYDGSNQYYADSVKGRFTISRDNSKNTLFLQMHSLRAEDTAVYYCARGLTSGRYGMDWGQGTTVTVSS VL: DIVMTQSPLSLPVTPGEPASISCRSSQSLLLSHGFNYLDWYLQKPGQSPQLLIYLGSSRASGVPDRFSGSGSGTDFTLKISRVEAEDVGLYYCMQPLQIPWTFGQGTKVEIK
0.252

Provenance of the data: patent US20250296992A1
